Test system: uterus growth induced by 17β-estradiol
Assay: Anti-uterus growth test in the adult rat
Assay type: in vivo
Details: sc; ovariectomized adult rat, 0.3 mg/kg s.c. d1-d3 with 1.5 μg/kg/day 17β-estradiol; percentage inhibition of uterus growth; read-out: Anti-oestrogenic activity in vivo in % at a dose of 0.3 mg/kg (rat)
Would you mind labelling by inhibition in vivo at 0.3 mg/kg? At or over 30% is 1.0, under is 0.0.

**Q:** hey, is inhibition in vivo at 0.3 mg/kg for this one >= 30%? CN(CCCCCCC1=C(c2cccnc2)CCCc2cc(O)ccc21)CCCS(=O)(=O)CCCC(F)(F)C(F)(F)F
**A:** 1.0

**Q:** hey, is inhibition in vivo at 0.3 mg/kg for this one >= 30%? CN(CCCCCCC1=C(c2ccccc2)CCCc2cc(O)ccc21)CCCCS(=O)(=O)CCCC(F)(F)F
**A:** 1.0

**Q:** hey, is inhibition in vivo at 0.3 mg/kg for this one >= 30%? CN(CCCCCC1=C(c2ccccc2)CCCc2cc(O)ccc21)CCC[S+]([O-])CCCC(F)(F)C(F)(F)F (racemic)
**A:** 1.0

**Q:** hey, is inhibition in vivo at 0.3 mg/kg for this one >= 30%? CN(CCCCCCC1=C(c2cccc(O)c2)CCCc2cc(O)ccc21)CCCS(=O)(=O)CCCC(F)(F)F
**A:** 1.0

**Q:** hey, is inhibition in vivo at 0.3 mg/kg for this one >= 30%? CN(CCCCCCC1=C(c2ccccc2)CCCc2c1ccc(O)c2Cl)CCCS(=O)(=O)CCCC(F)(F)C(F)(F)F
**A:** 0.0

---

Test system: ovarian estradiol synthesis
Experiment: Stimulation of ovarian oestrogen synthesis (HPG axis) in hormonally intact adult rats
Format: in vivo, rat
Conditions: 3 mg/kg daily for 10 days, quotient of peripheral estradiol values after and before treatment
Counter-ions that a name gives are not always drawn.
Criterion: Stimulation of ovarian oestrogen synthesis: factor at a dose of 3 mg/kg rat strictly less than 2. Met: 1. Not met: 0.

**Q:** Given CN(CCCCCCC1=C(c2ccc(O)cc2)CCCc2cc(O)ccc21)CCCS(=O)(=O)CCCC(F)(F)C(F)(F)F [Example 27] , is recorded Stimulation of ovarian oestrogen synthesis: factor at a dose of 3 mg/kg rat strictly lower than 2?
**A:** 0

**Q:** Given CN(CCCCCC1=C(c2ccccc2)CCCc2cc(O)ccc21)CCC[S+]([O-])CCCC(F)(F)C(F)(F)F (racemic) [Example 2] , is recorded Stimulation of ovarian oestrogen synthesis: factor at a dose of 3 mg/kg rat strictly lower than 2?
**A:** 1

**Q:** Given O=C(c1ccc(OCCN2CCCCC2)cc1)c1c(-c2ccc(O)cc2)sc2cc(O)ccc12 [raloxifene hydrochloride, raloxifene, reference compound] , is recorded Stimulation of ovarian oestrogen synthesis: factor at a dose of 3 mg/kg rat strictly lower than 2?
**A:** 0

**Q:** Given CN(CCCCCCC1=C(c2ccc(F)c(O)c2)CCCc2cc(O)ccc21)CCCS(=O)(=O)CCCC(F)(F)C(F)(F)F [Example 29] , is recorded Stimulation of ovarian oestrogen synthesis: factor at a dose of 3 mg/kg rat strictly lower than 2?
**A:** 1

**Q:** Given CN(CCCCCC1=C(c2ccc(O)c(F)c2)CCCc2cc(O)ccc21)CCCS(=O)(=O)CCCC(F)(F)C(F)(F)F [Example 38] , is recorded Stimulation of ovarian oestrogen synthesis: factor at a dose of 3 mg/kg rat strictly lower than 2?
**A:** 1

**Q:** Given CN(CCCCCC1=C(c2cccc(O)c2)CCCc2cc(O)ccc21)CCCCS(=O)(=O)CCCC(F)(F)C(F)(F)F [Example 7] , is recorded Stimulation of ovarian oestrogen synthesis: factor at a dose of 3 mg/kg rat strictly lower than 2?
**A:** 1
